This collection of values is drawn from paper PMC12040169.

test: in vitro; details: human, hela cells, % viability
parameter: viability at 28.5 h, 10 µM

Example results:
O=C(O)c1oc2ccccc2c1CSc1ccccn1 ... 89.5%
CCN(CC1CCOC1)C(=O)c1cn2ccccc2n1 (stereo not drawn) ... 83.5%
COc1ccc(CCN2CCC(Oc3cncc(OCC4COc5ccccc5O4)n3)C2)cc1OC (stereo not drawn) ... 112%

**Q:** Field request: viability at 28.5 h, 10 µM | item: Cc1[nH]c2ccccc2c1C(=O)CSc1nc2scc(-c3ccco3)c2c(=O)n1-c1ccccc1
**A:** 93.3%

**Q:** Try this compound next: O=C(Cn1cc(C(=O)NCc2ccccc2)ccc1=O)Nc1cc(F)ccc1N1CCCC1
**A:** 97.8%

**Q:** Param item: O=[N+]([O-])c1cc(S(=O)(=O)Nc2ccccc2)ccc1N1CCN2CCCC2C1 (stereo not drawn)
**A:** 87.7%
